# ASSAY_PROTOCOL: in vitro
# Format: in vitro ADME, rat
# CONDITIONS_USED: RLM (male Sprague-Dawley) 0.50 mg/mL, NADPH 1 mM, 1 μM compound, pH 7.4, 37° C., 60 min
Range-based classes on measured half-life (t1/2): low: < 3 min; medium: ≥ 3 min and < 10 min; high: ≥ 10 min

compound="CCC[C@@H](C)NC(=O)[C@@H]1C=C2c3cccc4[nH]cc(c34)C[C@H]2N(CCC)C1 [Compound 7]" discrete_label=low
compound="C=CCN1C[C@H](C(=O)N[C@H](C)CC)C=C2c3cccc4[nH]cc(c34)C[C@H]21 [Compound 8]" discrete_label=medium
compound="CCCN1C[C@H](C(=O)N[C@H](C)CC)C=C2c3cccc4[nH]cc(c34)C[C@H]21 [Compound 3]" discrete_label=medium
compound="CCN(CC)C(=O)[C@@H]1C=C2c3cccc4[nH]cc(c34)C[C@H]2N(Cc2ccccn2)C1 [Compound 22]" discrete_label=high
compound="CCN(CC)C(=O)[C@@H]1C=C2c3cccc4[nH]cc(c34)C[C@H]2N(CCc2ccc(OC)cc2)C1 [Compound 21]" discrete_label=medium
compound="CCCN1C[C@H](C(=O)N2[C@@H](C)C[C@@H]2C)C=C2c3cccc4[nH]cc(c34)C[C@H]21 [Compound 4]" discrete_label=high
compound="C=CCN1C[C@@H](C(=O)N[C@H](C)CC)C=C2c3cccc4[nH]cc(c34)C[C@H]21 [Compound 8a]" discrete_label=low
compound="CC[C@@H](C)NC(=O)[C@H]1C=C2c3cccc4[nH]cc(c34)C[C@H]2N(CC)C1 [Compound 5a]" discrete_label=medium
compound="CCN(CC)C(=O)[C@@H]1C=C2c3cccc4[nH]cc(c34)C[C@H]2N(Cc2ccccc2O)C1 [Compound 16]" discrete_label=low
compound="CCN(CC)C(=O)[C@@H]1C=C2c3cccc4[nH]cc(c34)C[C@H]2N(CCCF)C1 [Compound 2]" discrete_label=high
compound="CCN(CC)C(=O)[C@@H]1C=C2c3cccc4[nH]cc(c34)C[C@H]2N(Cc2ccccc2OC)C1 [Compound 10]" discrete_label=medium
